Data credit: the supplement of paper PMC10567573

B1: KCNA3 (parent)
chain: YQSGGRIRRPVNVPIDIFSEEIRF

variants of: B1; test: protein stability index of a GFP-peptide fusion (GPS, HEK-293T) (PSI 1-6); higher = more stable; conditions: c terminus: a fixed tail appended;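 also: lentivirally expressed fusions sorted by FACS into six bins by GFP to DsRed ratio, PSI derived from sequencing read proportions per bin multiplied by bin number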
Task for the reader: assign each of the following variants its reported protein stability index.
Please give the numeric answer without any surrounding text.

Bench note: what protein stability index did S19P show?
1.73

Bench note: what protein stability index did G5N show?
2

Bench note: what protein stability index did F18R show?
2.11

Bench note: what protein stability index did I15E show?
2.11

Bench note: what protein stability index did P10G show?
2.48

Bench note: what protein stability index did F18E show?
3.23

Bench note: what protein stability index did R8K show?
2.47

Bench note: what protein stability index did P10D show?
1.87

Bench note: what protein stability index did F18A show?
2.68
